- target_desc: T1, MLL4_(PHD2/3) D285K (human, UniProt O14686 227-324, D285K)
- T1 construct: human MLL4 (KMT2D), aa 227-324; source: E. coli BL21-CodonPlus, purified as WT
- T1 sequence (looked up): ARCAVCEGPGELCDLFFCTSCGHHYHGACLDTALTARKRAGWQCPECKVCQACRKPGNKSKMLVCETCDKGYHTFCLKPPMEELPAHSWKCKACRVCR
- assay_details: not stated; fluorescence spectroscopy or NMR: the legends of Fig. 3c and Fig. 4b say that values marked (a) are from NMR and the others from fluorescence; the text does not tell which for these pairs
- stated_conditions: both partners purified
readout: Kd

Give the measured Kd of NRTGARTLADIKAKAQLVKAQ (peptide, UniProt Q76L83 650-670, looked up, also called ASXL2 (aa 650-670); MBH of ASXL2; source: synthetic peptide (SynPeptide)) [ASXL2 peptide (residues 650-670 of ASXL2)] . ~1700 µM
